The origin of these recorded values is ChEMBL document CHEMBL5365394.

PROCEDURE TEXT: Cytotoxicity against human A549 cells assessed as cell viability at 32 ug/ml incubated for 24 hrs by CCK-8 assay relative to control
Assay type: toxicity, cell-based
SETTINGS: at 32 µg/mL, read-out: Activity
REPORTED PROPERTY: viability at 24 h, 32 ug/ml (%)
One number for each entry, in %.

Give its viability at 24 h, 32 ug/ml value. Item: O=C(/C=C/C(=O)Nc1ccc2c(c1)C(=O)NC1(CCSC1)N2)Nc1ccc([N+](=O)[O-])cc1 (configuration not stated)
87.8

***
Would you mind telling me what viability at 24 h, 32 ug/ml value was observed for NC(=O)OC[C@H](O)[C@@H](O)[C@H](N)C(=O)N[C@H](C(=O)O)[C@H]1O[C@@H](n2cc(CO)c(=O)[nH]c2=O)[C@H](O)[C@@H]1O ?
92.7

###

System: Candida tropicalis
PROCEDURE TEXT: Inhibition of Candida tropicalis ATCC 750 chitin synthase using […] as substrate at 300 ug/ml incubated for 1 hr by absorbance based assay relative to control
SETTINGS: dose 300.0 µg/ml
REPORTED PROPERTY: inhibition (%)
Numbers only, in %.

Known inhibition results, listed for orientation:
// returns reported inhibition for input O=C(/C=C/C(=O)Nc1ccc2c(c1)C(=O)NC1(CCSC1)N2)Nc1cccc(C(F)(F)F)c1 (centres undefined)
58.1

// returns reported inhibition for input O=C(/C=C/C(=O)Nc1ccc2c(c1)C(=O)NC1(CCOC1)N2)Nc1ccc(Cl)cc1 (centres undefined)
49.2

Looking for the measured inhibition of O=C(/C=C/C(=O)Nc1ccc2c(c1)C(=O)NC1(CCOC1)N2)Nc1ccc(Br)cc1 (centres undefined) , can you help?
63.1

Fill in: inhibition of O=C(/C=C/C(=O)Nc1ccc2c(c1)C(=O)NC1(CCSC1)N2)Nc1ccccc1 (centres undefined) is ___
44.2

Returns the measured inhibition for the input compound. Input: O=C(/C=C/C(=O)Nc1ccccc1F)Nc1ccc2c(c1)C(=O)NC1(CCSC1)N2 (centres undefined)
52.2

Given the entry O=C(/C=C/C(=O)Nc1ccc2c(c1)C(=O)NC1(CCSC1)N2)Nc1ccc(F)c(Cl)c1 (centres undefined) , report its measured inhibition.
64.4

Record request: inhibition value, item O=C(/C=C/C(=O)Nc1ccc2c(c1)C(=O)NC1(CCSC1)N2)Nc1cccc(Br)c1 (centres undefined)
67.5

Recorded inhibition for O=C(/C=C/C(=O)Nc1ccc2c(c1)C(=O)NC1(CCSC1)N2)Nc1cccc(Cl)c1 (centres undefined) , please?
60.9

Next up:
Query (compound): O=C(/C=C/C(=O)Nc1ccc2c(c1)C(=O)NC1(CCCC1)N2)Nc1ccc(Cl)cc1 ; field requested: inhibition
43.1

###

System: Aspergillus fumigatus
PROCEDURE TEXT: Antifungal activity against Fluconazole-resistant Aspergillus fumigatus GIMCC 3.19R assessed as fungal growth inhibition
Type: functional
Please respond with reported MIC for every item in the list.
Numbers only, in µg/mL.

// for each compound in input: emit MIC
1. OC(Cn1cncn1)(Cn1cncn1)c1ccc(F)cc1F
2. O=C(/C=C/C(=O)Nc1ccc2c(c1)C(=O)NC1(CCSC1)N2)Nc1ccc([N+](=O)[O-])cc1 (stereo unspecified)
3. O=C(/C=C/C(=O)Nc1ccc2c(c1)C(=O)NC1(CCSC1)N2)Nc1ccc(Br)cc1 (stereo unspecified)

1: 256; 2: 8; 3: 16
